- assay-notes: pKa value (imidazole)
- Assay type: physicochemical
observed-property: pKa

COc1ccc2[nH]c([S+]([O-])Cc3ncc(C)c(OC)c3C)nc2c1 (configuration not stated) [OMEPRAZOLE]
8.98
COc1ccnc(C[S+]([O-])c2nc3cc4c(cc3[nH]2)OC(F)(F)O4)c1 (configuration not stated)
7.92
COc1cc2[nH]c([S+]([O-])Cc3nccc(OC)c3C)nc2cc1OC(F)F (configuration not stated)
8.31
COc1ccnc(C[S+]([O-])c2nc3cc(OCC(F)(F)F)ccc3[nH]2)c1C (configuration not stated)
8.51
COc1ccnc(C[S+]([O-])c2nc3cc(F)c(OC(F)F)cc3[nH]2)c1OC (configuration not stated)
7.76
COc1c(C)cnc(C[S+]([O-])c2nc3cc(OC(F)F)ccc3[nH]2)c1C (configuration not stated)
8.23
COc1ccnc(C[S+]([O-])c2nc3cc(OC(F)(F)C(F)F)ccc3[nH]2)c1 (configuration not stated)
7.91
Cc1c(OCC(F)(F)F)ccnc1C[S+]([O-])c1nc2ccccc2[nH]1 (configuration not stated) [LANSOPRAZOLE]
8.78
COc1cnc(C[S+]([O-])c2nc3cc(OC(F)F)ccc3[nH]2)cc1OC (configuration not stated)
8.03
COc1ccnc(C[S+]([O-])c2nc3cc(OCC(F)(F)F)ccc3[nH]2)c1OC (configuration not stated)
8.52
COc1cnc(C[S+]([O-])c2nc3cc(OC(F)F)ccc3[nH]2)c(C)c1OC (configuration not stated)
8.35
COc1cnc(C[S+]([O-])c2nc3cc(OCC(F)(F)F)ccc3[nH]2)c(C)c1OC (configuration not stated)
8.61
COc1ccnc(C[S+]([O-])c2nc3cc4c(cc3[nH]2)OC(F)(F)O4)c1C (configuration not stated)
7.93
COc1ccnc(C[S+]([O-])c2nc3cc(OC(F)(F)C(F)F)ccc3[nH]2)c1OC (configuration not stated)
8.08
COc1cc(C[S+]([O-])c2nc3cc(OC(F)(F)C(F)F)ccc3[nH]2)ncc1C (configuration not stated)
8
COc1ccnc(C[S+]([O-])c2nc3cc4c(cc3[nH]2)OC(F)(F)O4)c1OC (configuration not stated)
7.97
COc1ccnc(C[S+]([O-])c2nc3cc(OC(F)F)ccc3[nH]2)c1OC (configuration not stated) [PANTOPRAZOLE]
8.19

###

- assay-notes: t1/2 (pH 3)
- Type: ADME
observed-property: half-life (min)

COc1ccnc(C[S+]([O-])c2nc3cc(F)c(OC(F)F)cc3[nH]2)c1OC (centres undefined)
26
COc1ccnc(C[S+]([O-])c2nc3cc(OC(F)F)ccc3[nH]2)c1C (centres undefined)
5
Cc1c(OCC(F)(F)F)ccnc1C[S+]([O-])c1nc2ccccc2[nH]1 (centres undefined) [LANSOPRAZOLE]
4
COc1cnc(C[S+]([O-])c2nc3cc(OC(F)(F)C(F)F)ccc3[nH]2)cc1OC (centres undefined)
19

P. COc1cnc(C[S+]([O-])c2nc3cc(OC(F)(F)C(F)F)ccc3[nH]2)c(C)c1OC (centres undefined)
Q. COc1ccnc(C[S+]([O-])c2nc3cc4c(cc3[nH]2)OC(F)(F)O4)c1OC (centres undefined)
R. COc1ccc2[nH]c([S+]([O-])Cc3ncc(C)c(OC)c3C)nc2c1 (centres undefined) [OMEPRAZOLE]
S. COc1cnc(C[S+]([O-])c2nc3cc(OCC(F)(F)F)ccc3[nH]2)c(C)c1OC (centres undefined)
T. COc1cc2[nH]c([S+]([O-])Cc3nccc(OC)c3C)nc2cc1OC(F)F (centres undefined)
Which order do these items take when sorted by rising half-life? List them. Quick reminder: the answer is the labels in the order asked.
R, T, S, P, Q
(R: 4 min, T: 6 min, S: 10 min, P: 20 min, Q: 38 min)
